Assay: in vitro
Conditions: dog
Below: a set of entries, each annotated with reported CC50.

>  <Compound>
NC(=O)c1ncn([C@@H]2O[C@H](CO)[C@@H](O)[C@H]2O)n1 [Ribavirin, ribavirin, reference compound]

>  <CC50>
> 450 µM

$$$$
>  <Compound>
CCOCc1nc2c(N)nc3ccccc3c2n1CC(C)(C)NS(C)(=O)=O [IRM]

>  <CC50>
> 300 µM

$$$$

====

Below: a set of entries, each annotated with reported CC50.
Test system: MDCK cells
Details: Influenza A (H1N1) test
Observation type: CC50

>  <Compound>
CCOCc1nc2c(N)nc3ccccc3c2n1CC(C)(C)NS(C)(=O)=O

>  <Observation type>
CC50

>  <Measurement>
> 300 µM

$$$$
>  <Compound>
NC(=O)c1ncn([C@@H]2O[C@H](CO)[C@@H](O)[C@H]2O)n1 [Ribavirin, ribavirin, reference compound]

>  <Observation type>
CC50

>  <Measurement>
> 450 µM

$$$$
